- System: SR leukemia
- assay method text: NCI tumour cell line growth inhibition, 48 h
measurement label: TGI

{"compound": "COC1=CC(=O)c2ccccc2C1(CCC=C(C)C)C1=NC(C)(C)CO1 (stereo unspecified)", "obs value": "> 100 µM"}
{"compound": "CC(C)(CO)CNc1cc(=O)[nH]c(N)n1", "obs value": "> 100 µM"}
{"compound": "Cc1ccc(C(=O)N(C2CCCCC2)C2CCCCC2)cc1N=NN(C)C", "obs value": "76.7 µM"}
{"compound": "N=C1C(c2nc(-c3ccc(Br)cc3)cs2)=C(O)CN1Cc1cccnc1", "obs value": "67.2 µM"}
{"compound": "Cc1cc(C)nc(NS(=O)(=O)c2ccc(Nc3c4ccccc4nc4c(C(=O)Nc5ccc(S(=O)(=O)N=C(N)N)cc5)ccc(Cl)c34)cc2)n1", "obs value": "65.4 µM"}
{"compound": "Cc1cnoc1NC1=CC(=O)C(=O)c2ccccc21", "obs value": "> 100 µM"}
{"compound": "O=C(Oc1ccc(Cl)cc1Cl)c1ccccc1Nc1ccnc(C(F)(F)F)c1", "obs value": "> 100 µM"}
{"compound": "COc1cc2c3cc1Oc1c(O)c(OC)cc4c1[C@H](Cc1ccc(cc1)Oc1cc(ccc1O)C[C@H]3N(C)CC2)N(C)CC4", "obs value": "9.15 µM"}
{"compound": "CC(C)Oc1c(-c2c(OC(C)C)c(=O)c2=O)c(=O)c1=O", "obs value": "> 100 µM"}
{"compound": "c1ccc(CNc2c3c(nc4ccccc24)CCC3)cc1", "obs value": "38.9 µM"}
{"compound": "CC1=C(C(=O)Nc2c(C)cccc2C)C(c2ccc3c(c2)OCO3)C(C(=O)Nc2c(C)cccc2C)=C(C)N1", "obs value": "90.9 µM"}
{"compound": "C=C1CC2(OC1=O)C(=O)N(CCCCCCCN1C(=O)C3(CC(=C)C(=O)O3)c3ccccc31)c1ccccc12 (stereo unspecified)", "obs value": "3.58 µM"}
{"compound": "Cc1cc2c(cc1Cl)Sc1nnc(Nc3ccccc3)n1S2(=O)=O", "obs value": "13.6 µM"}
{"compound": "CC1(C)OC2OC(COC(=O)C=[N+]=[N-])C3OC(C)(C)OC3C2O1 (stereo unspecified)", "obs value": "> 100 µM"}
{"compound": "CC1=C(C)C(=O)c2c(cc3ccc4ccccc4n23)C1=O", "obs value": "> 100 µM"}
{"compound": "O=C(Nc1sccc1S(=O)(=O)c1ccccc1)c1cccnc1", "obs value": "> 100 µM"}
{"compound": "COc1ccc2c(c1)/C(=C\\c1c(C)nc3sc(C)cn13)C(=O)N2C", "obs value": "> 100 µM"}
{"compound": "O=C(O)c1c(-c2cccc3ccccc23)sc(-c2cccc3ccccc23)c1C(=O)O", "obs value": "> 100 µM"}
{"compound": "CCNC(=O)Nc1cccc(C)n1", "obs value": "> 100 µM"}
{"compound": "CCCC/C=C1\\CCC(CN2CCCCC2)C1=O (stereo unspecified)", "obs value": "> 24.7 µM"}
{"compound": "Cc1nc2ccc(S(=O)(=O)Nc3ccc(Cl)cc3)cc2c(=O)n1NC(=O)CNc1ccc(Cl)cc1", "obs value": "> 100 µM"}

====

- Tested on: SF-295 CNS
- assay method text: NCI tumour cell line growth inhibition, 48 h
List of TGI values.
measurement label: TGI

{"compound": "CCC[CH2][Sn-]([CH2]CCC)([CH2]CCC)[O]c1cc(Cl)c(Cl)cc1Cl", "obs value": "0.732 µM"}
{"compound": "CCN1CC(C)Cn2c(=O)[nH]c3cc(Br)cc1c32 (stereo unspecified)", "obs value": "> 100 µM"}
{"compound": "O=C(O)c1c(-c2cccc3ccccc23)sc(-c2cccc3ccccc23)c1C(=O)O", "obs value": "> 100 µM"}
{"compound": "CCCC/C=C1\\CCC(CN2CCCCC2)C1=O (stereo unspecified)", "obs value": "45.5 µM"}
{"compound": "CC(=O)NNc1nc(C)c(C(/C=C/c2ccc3c(c2)OCO3)=N/Nc2ccccc2)s1", "obs value": "> 100 µM"}
{"compound": "CCC1C(=O)C[C@H]2[C@@H]3C(O)CC4=CC(=O)CC[C@]4(C)[C@H]3CC[C@]12C (stereo partly specified)", "obs value": "> 50 µM"}
{"compound": "COc1cccc(N2C(=O)C3c4[nH]c5ccccc5c4C4c5ccccc5CCC4C3C2=O)c1 (stereo unspecified)", "obs value": "> 10 µM"}
{"compound": "CC(C)(CN)CN", "obs value": "> 100 µM"}
{"compound": "CC1(C)OC2OC(COC(=O)C=[N+]=[N-])C3OC(C)(C)OC3C2O1 (stereo unspecified)", "obs value": "> 100 µM"}
{"compound": "COC(=O)C1CC2(CC3=C1CCCC3)OCCO2 (stereo unspecified)", "obs value": "> 100 µM"}
{"compound": "Cc1ccc2[nH]cc(-c3nc(-c4c[nH]c5ncccc45)cs3)c2c1", "obs value": "> 100 µM"}
